Values were extracted from PubChem BioAssay (NCI).

system: SK-OV-3 ovarian; assay: NCI tumour cell line growth inhibition, 48 h
measured.metric: TGI

SK-OV-3 ovarian assay, compound COc1cc(/C=C/C(=O)c2c(=O)o[nH][n+]2-c2ccccc2)ccc1[O-] , recorded TGI = 16.1 µM

SK-OV-3 ovarian assay, compound CN(C)c1nc(N(C)C)nc(N(C)C23CC4CC(CC(C4)C2)C3)n1 , recorded TGI = > 100 µM

SK-OV-3 ovarian assay, compound OCC1OC(n2cnc3cncnc32)C(O)C1O (centres undefined) , recorded TGI = 5.16 µM

* * *

tested on: MDA-N; test: NCI tumour cell line growth inhibition, 48 h
Below, each of the compounds is paired with its reported TGI value.

TGI in this record for Cc1ccc(S(=O)(=O)NNC(=O)c2cc(C)ccc2NC(=O)C23CC4CC(CC(C4)C2)C3)cc1 : > 100 µM

TGI in this record for C=C(CCCCCCCCC)CC(=O)SCCNC(=O)CCNC(=O)C(O)C(C)(C)COP(=O)(O)OP(=O)(O)OCC1OC(n2cnc3c(N)ncnc32)C(O)C1OP(=O)(O)O (configuration not stated) : > 76.6 µM

Next:
TGI in this record for CN1CCN(c2c(Cl)cc(Cl)c3[nH]c4ccccc4c(=O)c23)CC1 : 20.7 µM

TGI in this record for COc1cc(/C=C/C(=O)c2c(=O)o[nH][n+]2-c2ccccc2)ccc1[O-] : 6.25 µM

TGI in this record for COc1ccc(-c2cc(=O)c3c(C)cc(C)nc3[nH]2)cc1 : > 100 µM

TGI in this record for C(=C\c1cccc(/C=C/c2ccccn2)n1)/c1ccccn1 : > 100 µM

TGI in this record for CC1(C)OCC(C(O)C2OC(C)(C)OC2C=O)O1 (configuration not stated) : > 100 µM

* * *

system: UACC-62 melanoma; assay: NCI tumour cell line growth inhibition, 48 h
measured.metric: GI50

Past entries and their recorded results:
GI50 in this record for CCCC(=O)Nc1cc(C(=O)N2C[C@@H]3C[C@]34C2=CC(=O)c2[nH]cc(C)c24)n(COC)c1 : 2.84 µM

GI50 in this record for CCC(=O)O[C@H]1CC[C@H]2[C@@H]3CC[C@H]4CC(=O)[C@H](C)C[C@]4(C)[C@H]3CC[C@]12C : 13.9 µM

GI50 in this record for COc1ccc(C2SCC(=O)N2NC(=O)C(O)c2ccccc2)cc1OC (configuration not stated) : > 100 µM

GI50 in this record for CCN(CC)CCNc1ccc([N+](=O)[O-])c2sc3ccccc3c(=O)c12 : 2.79 µM

GI50 in this record for FC(F)(F)c1cc(-c2nnc3n2N=C(N2CCCC2)CS3)cc(C(F)(F)F)c1 : > 50 µM

GI50 in this record for O=C1C(c2c[nH]c3ccccc23)=C(c2c[nH]c3ccccc23)C(=O)N1O : 24.6 µM

Consider the record given below.
GI50 in this record for O=C([CH-]C(=O)c1ccccc1)c1ccccc1.O=C([CH-]C(=O)c1ccccc1)c1ccccc1.O=C([CH-]C(=O)c1ccccc1)c1ccccc1.[Nd+3].[OH3+] : 4.3 µM

* * *

Below, each of the compounds is paired with its reported TGI value.
tested on: K-562 leukemia; assay: NCI tumour cell line growth inhibition, 48 h

Past entries and their recorded results:
TGI in this record for CCCCc1cc2c(C)cc(=O)oc2c(O)c1O : 73.5 µM

TGI in this record for CN(C)/N=C/c1cn(C)c(=O)n(C)c1=O : > 100 µM

TGI in this record for NC(=S)N/N=C\c1ccc(OCc2cccc(COc3ccc(/C=N/NC(N)=S)cc3)n2)cc1 : > 100 µM

TGI in this record for Cc1cc(=O)n2nc(SCc3ccccc3)sc2n1 : > 100 µM

TGI in this record for CCOC(=O)C(NC(=O)N(C1=NCC(C)S1)C1CCCCC1)(OC)C(F)(F)F (centres undefined) : > 100 µM

Next:
TGI in this record for CCNc1ccc2c(c1)Cc1ccccc1-2 : > 100 µM

TGI in this record for CC1(C)OCC(C(O)C2OC(C)(C)OC2C=O)O1 (centres undefined) : > 100 µM

TGI in this record for CC1(C)CC[C@H](Nc2ncc(C(F)(F)F)c(-c3c[nH]c4c(P(C)(C)=O)c(C#N)ccc34)n2)CN1 : > 45.9 µM

TGI in this record for Clc1ccc(N2N=C(c3cccc(Nc4ccncc4)c3)CC2c2ccc3c(c2)OCO3)cc1 (centres undefined) : 5.39 µM

TGI in this record for CC(=O)OCC1OC(n2c3c(c(-c4cccc5ccccc45)c(C#N)c2=S)CCCC3)C(OC(C)=O)C(OC(C)=O)C1OC(C)=O (centres undefined) : > 100 µM

TGI in this record for COc1cc(/C=C\c2ccccc2)cc(OC)c1OC : > 43.2 µM

TGI in this record for CCCCC1CC(c2cccc([N+](=O)[O-])c2)=NO1 (centres undefined) : > 100 µM

TGI in this record for Oc1ccc(C(c2ccc(O)cc2)c2ccc(Cl)cn2)cc1 : > 100 µM

TGI in this record for O=C(c1ccccc1)C1CCCCN1C(=O)c1ccccc1 (centres undefined) : > 100 µM
